Target: CA-II (Homo sapiens)
Construct: purchased R&D Systems
Assay: Inhibition of carbonic anhydrase II (4-nitrophenyl acetate hydrolysis, spectrophotometric at 400 nm)
Assay type: biochemical
Conditions: purified human enzyme 30 nM; 9 mM Tris-HCl, 81 mM NaCl, pH 7.4, 25° C.; 10 min preincubation
Measured Property: IC50 (nM)
Give just the number in nM; leave the unit off.

For NS(=O)(=O)c1ccc(NC(=S)N[C@@H](CC(=O)O)C(=O)N[C@@H](CC(=O)O)C(=O)NCc2ccc(I)cc2)cc1 [Comparative Example 1] the molecule record lists IC50 as 377
